- test target: T1, human 5T4-His protein (human, UniProt Q13641 32-355)
- T1 construct: also called recombinant 5T4 protein (human 5T4-his tag); human 5T4 protein; not shown: His tag
- T1 sequence (looked up): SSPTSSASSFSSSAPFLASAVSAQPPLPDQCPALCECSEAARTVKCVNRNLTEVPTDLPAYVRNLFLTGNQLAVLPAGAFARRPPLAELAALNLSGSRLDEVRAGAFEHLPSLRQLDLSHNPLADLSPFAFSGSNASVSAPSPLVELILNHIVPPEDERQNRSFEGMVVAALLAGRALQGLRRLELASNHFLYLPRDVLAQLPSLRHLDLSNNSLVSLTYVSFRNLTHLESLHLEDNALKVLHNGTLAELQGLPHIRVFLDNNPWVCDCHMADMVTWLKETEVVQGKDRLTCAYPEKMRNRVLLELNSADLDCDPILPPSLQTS
- method notes: SPR Biacore, Protein A capture
recorded metric: kon (M⁻¹ s⁻¹)

# binder, recorded metric, scale unit, endpoint value
data = [
    ("Hu14G12-23 (antibody, V domains shown, humanized) VH: QVQLVQSGAEVKKPGSSVKVSCKASGYAFSSSWMNWVRQAPGQGLEWMGRIYREDGHTNYNGKFKGRVTITADKSTTTAYMELSSLRSEDTAVYYCANGGAMDYWGQGTLVTVSS VL: DIQMTQSPSSLSASVGDRVTITCRASQDISNYLNWYQQKPGKAPKLLIYYTSRLHSGVPSRFSGSGSGTDYTFTISSLQPEDIATYFCQQDNTLPWTFGGGTKVEIK", "kon", "M⁻¹ s⁻¹", 352000),
    ("Hu14G12-5 (antibody, V domains shown, humanized) VH: EVQLVQSGAEVKKPGATVKISCKVSGYAFSSSWMNWVQQAPGKGLEWIGRIYREDGHTNYNGKFKGRVTITADTSTDTAYMELSSLRSEDTAVYFCANGGAMDYWGQGTLVTVSS VL: DIQMTQSPSSLSASVGDRVTITCRASQDISNYLNWYQQKPGKAPKLLIYYTSRLHSGVPSRFSGSGSGTDFTFTISSLQPEDIATYYCQQDNTLPWTFGGGTKLEIK", "kon", "M⁻¹ s⁻¹", 248000),
    ("Hu14G12-43 (antibody, V domains shown, humanized) VH: QVQLVQSGAEVKKPGASVKVSCKASGYAFSSSWMNWVRQAPGQGLEWMGRIYREDGHTNYNGKFKGRVTMTADKSTTTAYMELRSLRSDDTAVYYCANGGAMDYWGQGTLVTVSS VL: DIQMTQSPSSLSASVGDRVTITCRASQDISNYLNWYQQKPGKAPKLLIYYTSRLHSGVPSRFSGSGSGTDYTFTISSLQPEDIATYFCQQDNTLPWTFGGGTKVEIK", "kon", "M⁻¹ s⁻¹", "1.89e+06"),
]
